Reference source for all entries: patent US8288410B2

System: MRSA
Test: Antibacterial susceptibility testing, MRSA
Type: cell-based, methicillin resistant Staphylococcus aureus
Conditions: Staphylococcus aureus, Table 2, read-out: MRSA IC50
measured-quantity: IC50 (µg/mL)
Hi! Could you send only the number? It should be in µg/mL, unit omitted.

>>> quantitative_result("Clc1ccc(Nc2cc3ccccc3[n+](CCCCCc3ccccc3)c2)cc1 [JRE-2-89-1]")
1.5
>>> quantitative_result("C[n+]1cc(N(CCCCCC2CCCCC2)c2ccsc2)cc2ccccc21 [EVK-II-091]")
0.45
>>> quantitative_result("C[n+]1cccc(N(CCCCCC2CCCCC2)c2ccc3ccccc3c2)c1 [EVK-III-002]")
0.45
>>> quantitative_result("c1ccc(Nc2cc3ccccc3[n+](CCCCCC3CCCCC3)c2)cc1 [JRE-3-19-1]")
0.85

**Q:** Please give the measured IC50 for this compound: C[n+]1cc(N(CCCCCC2CCCCC2)c2ccc3ccccc3c2)cc2ccccc21 [EVK-III-001]
**A:** 0.3

**Q:** Please give the measured IC50 for this compound: C[n+]1cccc(N(CCCCCC2CCCCC2)c2ccccc2)c1 [JRE-4-1-1]
**A:** 1.5
